Assay: xn = mol fraction of the nth substance listed
Details: 293.15 K; 100 kPa; Liquid; Concentric cylinders viscometry; x1 = 0.5999
Numbers after ± are expanded uncertainties.
METRIC NAME: viscosity
Report as: number unit

# count of solved cases: 3
{"columns": ["COMPOUND", "METRIC NAME", "RECORDED VALUE"],
 "data": [
  ["CCCCCCCC(=O)OCC [ethyl octanoate] + CC(C)CCO", "viscosity", "1.673 ± 0.02 mPa·s"],
  ["CCOC(=O)CCC(=O)OCC [diethyl butanedioate] + CC(C)CCO", "viscosity", "2.271 ± 0.022 mPa·s"],
  ["CCCCCCCC(=O)OCC [ethyl octanoate] + CC(C)CO", "viscosity", "1.593 ± 0.017 mPa·s"]
]}

Continue with the compound presented below.
Field viscosity (entry CCOC(=O)CCC(=O)OCC [diethyl butanedioate] + CC(C)CO ) reads 2.249 ± 0.02 mPa·s
